tested on: P93_24; assay: qHTS profiling for inhibitors of Plasmodium falciparum proliferation (AID 504749); note: nearly all actives have a fitted effect of over 60% in size; details: P. falciparum in erythrocytes, SYBR Green DNA, 72 h; series mostly up to 12.8 µM
Results filed as inconclusive are left out. Activity calls are given as the source filed them. Calls come from the whole dose curve; as a rule, active = well fitted inhibition curve with a large enough effect; inconclusive = small, poorly fitted or top-dose-only effect; inactive = flat fitted curve, though single readings scatter.
Possible outcomes: active, inactive

COMPOUND | CLASS_LABEL
C[C@H](Oc1ccccc1)C(=O)N[C@@H]1C(=O)N2[C@@H]1SC(C)(C)[C@@H]2C(=O)O | inactive
CCC(C)(C)C(=O)O[C@@H]1C[C@H](C)C=C2C=C[C@H](C)[C@@H](CC[C@H]3C[C@@H](O)CC(=O)O3)[C@H]21 | inactive
CC(=O)[C@]1(O)CCC2C3C=C(Cl)C4=CC(=O)C5CC5[C@@]4(C)C3CC[C@]21C (some centres undefined) | inactive
COc1ccc(CC(N)C(=O)NC2C(CO)OC(n3cnc4c(N(C)C)ncnc43)C2O)cc1 (centres undefined) | active
CC[N+](CC)(CC)CC[C@](O)(c1ccccc1)C1CCCCC1 | inactive
CN(C)CCCOC1C(C(O)CO)OC2OC(C)(C)O[C@@H]21 (some centres undefined) | inactive
CCC(=O)O[C@@]1(C(=O)CCl)C(C)CC2C3CCC4=CC(=O)C=C[C@@]4(C)[C@]3(F)C(O)C[C@]21C (some centres undefined) | active
C[C@@H](C(=O)O)c1ccc(C(=O)c2ccccc2)s1 | inactive
CCCC(=O)O[C@]1(C(=O)CO)CCC2[C@@H]3CCC4=CC(=O)CC[C@]4(C)C3C(O)C[C@]21C (some centres undefined) | inactive
COc1ccc(C[C@@](C)(N)C(=O)O)cc1OC | inactive
COc1ccc(-c2cc(=O)c3c(O)cc(O[C@H]4OC(COC5OC(C)C(O)C(O)[C@H]5O)C(O)C(O)C4O)cc3o2)cc1O (some centres undefined) | inactive
CC[C@@H]1OC(=O)[C@H](C)[C@H](O[C@@H]2C[C@](C)(OC)[C@H](O)[C@H](C)O2)[C@H](C)[C@H](O[C@@H]2O[C@@H](C)C[C@@H](N(C)C)[C@@H]2O)[C@](C)(O)C[C@H](C)C(=NOCOCCOC)[C@H](C)[C@H](O)[C@]1(C)O | inactive
Clc1ccc([C@H](Cn2ccnc2)OCc2c(Cl)cccc2Cl)c(Cl)c1 | active
NC[C@@H]1O[C@H](O[C@@H]2[C@H](O[C@@H]3O[C@H](CO)[C@@H](O)[C@@H]3O)[C@@H](O)[C@@H](N)C[C@H]2N)[C@@H](N)[C@H](O)[C@@H]1O | inactive
COc1ccc2cc1Oc1ccc(cc1)CC1c3c(cc4c(c3Oc3cc5c(cc3OC)CCN(C)C5C2)OCO4)CCN1C (centres undefined) | active
C[C@@]12CCC(=O)C=C1C=CC1C2CC[C@]2(C)C1CC[C@@]21CCC(=O)O1 (some centres undefined) | inactive
C[C@]1(c2ccccc2)OC(C(=O)O)=CC1=O | inactive
CN1CC(=O)N=C1N | inactive
C/C1=C2N=C(/C=C3N=C(/C(C)=C4\[N-]C(C)(C5N=C1C(C)(CCC(=O)NCC(C)OP(=O)([O-])O[C@H]1C(O)C(n6cnc7cc(C)c(C)cc76)O[C@@H]1CO)C5CC(N)=O)C(C)(CC(N)=O)C4CCC(N)=O)C(C)(CC(N)=O)C\3CCC(N)=O)C(C)(C)C/2CCC(N)=O.[CH2-]C1OC(n2cnc3c(N)ncnc32)C(O)C1O.[Co] (some centres undefined) | inactive
